# system-name: T1, HLA-A*01:01 (human)
# T1 construct: MHC class I monomer first loaded with a UV-sensitive peptide (not identified) that is cleaved by UV irradiation and exchanged for the tested peptide; captured on streptavidin plates, detected with anti-β2m; also called peptide-receptive MHC molecules
# protocol: UV-ligand exchange, anti-b2m ELISA
quantity: peptide exchange yield

// solved cases for peptide exchange yield follow
- binder: "AVAAAAGASLY"
  peptide exchange yield: "20 to 50%"
- binder: "CVIETFHKY"
  peptide exchange yield: "50 to 75%"
- binder: "MADRGEARL"
  peptide exchange yield: "20 to 50%"

I would be grateful if you could share the reported peptide exchange yield for IGDKVDAVY .
20 to 50%

Same for MTDVFIDY
50 to 75%

Same for NSENHILKY
> 75%

Same for WSDGVPLLY
> 75%

Same for TQHFVQENY
20 to 50%

Same for VAEPPVVCSY
20 to 50%

Same for NSDISIPEY
50 to 75%

Same for FTAQLQLY
50 to 75%

Same for SQHIFTVSY
20 to 50%

Same for RSDPVSLRY
> 75%

Same for NLDPNKIY
10 to 20%

Same for ESEMIKFASYY
> 75%

Same for ARLEGEIATY
20 to 50%

Same for TSDVTGSLTY
> 75%

Same for NTHTGTRPY
20 to 50%

Reference source for all entries: patent US20200087364A1
